Provenance of the data: patent US20260042731A1

# Test system: Ambrosia artemisiifolia (AMBEL), common ragweed
# Measurement Protocol: Postemergence herbicide evaluation, growth of Ambrosia artemisiifolia (AMBEL)
# Format: in vivo
# Condition Parameters: Ambrosia artemisiifolia, post-emergence, 168 h, 280 g ae/ha, 7 DAA, percent reduction in plant size relative to untreated control; read-out: AVE. AMBEL
Provide the reported pest or weed control at 280 g/ha of each item.
Give bare numbers, in %.

O=C(COc1ccc(Cl)cc1Cl)ON1CCCCC1 [Compound A11]
65
C/C(C/C(C)=N/OC(=O)COc1ccc(Cl)cc1Cl)=N\OC(=O)COc1ccc(Cl)cc1Cl [Compound B6]
68
O=C(COc1ccc(Cl)cc1Cl)NOc1ccccc1 [Compound D7]
63
CS/C(C)=N\OC(=O)COc1ccc(Cl)cc1Cl [Compound A10]
70
CCOC(=O)C(=NOC(=O)COc1ccc(Cl)cc1Cl)C(=O)OCC [Compound A7]
63
CN(NC(=O)COc1ccc(Cl)cc1Cl)C(=O)c1ccccc1 [Compound D9]
60
O=C(COc1ccc(Cl)cc1Cl)ON(Cc1ccccc1)Cc1ccccc1 [Compound A14]
50
Cn1c(O)c(C(=O)COc2ccc(Cl)cc2Cl)c2ccccc21 [Compound C1]
48
O=C(COc1ccc(Cl)cc1Cl)ON1C(=O)c2ccccc2C1=O [Compound A15]
73
Cc1ccc(S(=O)(=O)NC(=O)COc2ccc(Cl)cc2Cl)cc1 [Compound D5]
48

Request: Supply pest or weed control at 280 g/ha value. Item: O=C(COc1ccc(Cl)cc1Cl)ONC(=O)c1ccc(C(=O)NOC(=O)COc2ccc(Cl)cc2Cl)cc1 [Compound B4]
Result: 58

* * *

# Measurement Protocol: Volatility of compounds measured by thermogravimetric analysis (TGA)
# Type: physicochemical
Metric: TGA Data (rate of weight loss, volatility) (µg/min)
Numbers only, in µg/min.

// worked examples, TGA Data (rate of weight loss, volatility) included
O=C(COc1ccc(Cl)cc1Cl)ONC(=O)c1ccc(C(=O)NOC(=O)COc2ccc(Cl)cc2Cl)cc1 [Compound B4]
0.3
CCOC(=O)C(=NOC(=O)COc1ccc(Cl)cc1Cl)C(=O)OCC [Compound A7]
4.7
Cn1c(O)c(C(=O)COc2ccc(Cl)cc2Cl)c2ccccc21 [Compound C1]
0.7
O=C(COc1ccc(Cl)cc1Cl)OCCOCCOC(=O)COc1ccc(Cl)cc1Cl [Compound B2]
0.04
N/C(=N\OC(=O)COc1ccc(Cl)cc1Cl)c1cccnc1 [Compound A4]
1

Please report TGA Data (rate of weight loss, volatility) for every entry that follows.
1. C/C(=N\OC(=O)COc1ccc(Cl)cc1Cl)C(=O)c1ccccc1 [Compound A22]
2. C/C(=N\OC(=O)COc1ccc(Cl)cc1Cl)c1ccccc1Cl [Compound A24]
3. C=CCONC(=O)COc1ccc(Cl)cc1Cl [Compound D33]

Result:
[0.42, 0.03549, 0.34]

* * *

# Test system: Ambrosia artemisiifolia (AMBEL), common ragweed
# Measurement Protocol: Postemergence herbicide evaluation, growth of Ambrosia artemisiifolia (AMBEL)
# Assay type: in vivo
# Condition Parameters: Ambrosia artemisiifolia, post-emergence, 504 h, 560 g ae/ha, 21 DAA; read-out: AVE. AMBEL, percent reduction in plant size relative to the untreated control
Provide the reported pest or weed control at 560 g/ha of each item.
Numbers only, in %.

C/C(=N\OC(=O)COc1ccc(Cl)cc1Cl)c1ccccc1Cl
100
CC(C)CONC(=O)COc1ccc(Cl)cc1Cl
100

Request: Supply pest or weed control at 560 g/ha value. Item: O=C(COc1ccc(Cl)cc1Cl)Nc1ccon1 [Compound D2]
Result: 97

* * *

# Tested on: Ambrosia artemisiifolia (AMBEL), common ragweed
# Measurement Protocol: Postemergence herbicide evaluation, growth of Ambrosia artemisiifolia (AMBEL)
# Assay type: in vivo
# Condition Parameters: Ambrosia artemisiifolia, post-emergence, 336 h, 560 g ae/ha, 14 DAA, percent reduction in plant size relative to untreated control; read-out: AVE. AMBEL
Metric: pest or weed control at 560 g/ha (%)
Numbers only, in %.

// worked examples, pest or weed control at 560 g/ha included
O=C(COc1ccc(Cl)cc1Cl)ON1C(=O)c2ccccc2C1=O [Compound A15]
88
O=C(COc1ccc(Cl)cc1Cl)NOc1ccccc1 [Compound D7]
89
Cc1ccc(S(=O)(=O)NC(=O)COc2ccc(Cl)cc2Cl)cc1 [Compound D5]
90
CS/C(C)=N\OC(=O)COc1ccc(Cl)cc1Cl [Compound A10]
92
CCO/C(CC)=N\OC(=O)COc1ccc(Cl)cc1Cl [Compound A9]
93
O=C(COc1ccc(Cl)cc1Cl)NNC(=O)c1ccccc1 [Compound D10]
97
O=C(COc1ccc(Cl)cc1Cl)ONC(=O)c1ccc(C(=O)NOC(=O)COc2ccc(Cl)cc2Cl)cc1 [Compound B4]
84
O=C(COc1ccc(Cl)cc1Cl)ON(Cc1ccccc1)Cc1ccccc1 [Compound A14]
50
N/C(=N\OC(=O)COc1ccc(Cl)cc1Cl)c1ccc(/C(N)=N/OC(=O)COc2ccc(Cl)cc2Cl)cc1 [Compound B5]
15
Cc1cc(OC(=O)COc2ccc(Cl)cc2Cl)n(C)n1 [Compound E6]
88

Please report pest or weed control at 560 g/ha for every entry that follows.
1. O=C(COc1ccc(Cl)cc1Cl)O/N=C/c1ccc(/C=N/OC(=O)COc2ccc(Cl)cc2Cl)cc1 [Compound B3]
2. O=C(COc1ccc(Cl)cc1Cl)ON1CCCCC1 [Compound A11]

Result:
50
97

* * *

# System: Amaranthus rudis (AMATA), tall water hemp
# Measurement Protocol: Postemergence herbicide evaluation, growth of Amaranthus rudis (AMATA)
# Type: in vivo
# Condition Parameters: Amaranthus tuberculatus, post-emergence, 504 h, 560 g ae/ha, 21 DAA; read-out: Ave. AMATA, percent reduction in plant size relative to the untreated control
Metric: pest or weed control at 560 g/ha (%)
Give bare numbers, in %.

// worked examples, pest or weed control at 560 g/ha included
O=C(COc1ccc(Cl)cc1Cl)O/N=C1\CCCc2ccccc21
64
O=C(COc1ccc(Cl)cc1Cl)Nc1ccon1 [Compound D2]
97

Please report pest or weed control at 560 g/ha for every entry that follows.
1. O=C(COc1ccc(Cl)cc1Cl)O/N=C/c1ccncc1
2. O=C(COc1ccc(Cl)cc1Cl)O/N=C/c1ccccn1
3. O=C(COc1ccc(Cl)cc1Cl)Nc1c(Cl)c(F)nc(F)c1Cl

Result:
1. 99
2. 94
3. 2.5

* * *

Provide the reported pest or weed control at 560 g/ha of each item.
# System: Abutilon theophrasti (ABUTH), velvetleaf
# Measurement Protocol: Postemergence herbicide evaluation, growth of Abutilon theophrasti (ABUTH)
# Assay type: in vivo
# Condition Parameters: Abutilon theophrasti, post-emergence, 336 h, 560 g ae/ha, 14 DAA, percent reduction in plant size vs untreated control; read-out: AVE. ABUTH
Numbers only, in %.

// worked examples, pest or weed control at 560 g/ha included
Cc1cc(NC(=O)COc2ccc(Cl)cc2Cl)n(C)n1
52.5
C=CCONC(=O)COc1ccc(Cl)cc1Cl
99.5
O=C(COc1ccc(Cl)cc1Cl)NOC1CCCCO1 (centres unmarked)
94.5
CONC(=O)COc1ccc(Cl)cc1Cl
98
O=C(COc1ccc(Cl)cc1Cl)Nc1cccnc1
98.5
O=C(COc1ccc(Cl)cc1Cl)Oc1ccccn1
97.5

Please report pest or weed control at 560 g/ha for every entry that follows.
1. O=C(COc1ccc(Cl)cc1Cl)NOCc1ccc(Cl)cc1
2. O=C(COc1cc(Cl)cc(Cl)c1)OCCCOC(=O)COc1ccc(Cl)cc1Cl

Result:
1. 37.5
2. 30

* * *

# Test system: Amaranthus rudis (AMATA), tall water hemp
# Measurement Protocol: Postemergence herbicide evaluation, growth of Amaranthus rudis (AMATA)
# Type: in vivo
# Condition Parameters: Amaranthus tuberculatus, post-emergence, 504 h, 280 g ae/ha, 21 DAA; read-out: Ave. AMATA, percent reduction in plant size relative to the untreated control
Provide the reported pest or weed control at 280 g/ha of each item.
Give bare numbers, in %.

// worked examples, pest or weed control at 280 g/ha included
N/C(=N\OC(=O)COc1ccc(Cl)cc1Cl)c1cccnc1 [Compound A4]
70
O=C(COc1ccc(Cl)cc1Cl)O/N=C1\CCCc2ccccc21 [Compound A25]
50
O=C(COc1ccc(Cl)cc1Cl)Nc1c(Cl)c(F)nc(F)c1Cl [Compound D25]
5
O=C(COc1ccc(Cl)cc1Cl)Nc1ccon1 [Compound D2]
94
O=C(COc1ccc(Cl)cc1Cl)Nc1nccs1 [Compound D24]
77.5

Please report pest or weed control at 280 g/ha for every entry that follows.
1. O=C(COc1ccc(Cl)cc1Cl)O/N=C/c1ccccc1 [Compound A2]
2. C/C(=N\OC(=O)COc1ccc(Cl)cc1Cl)c1ccccc1Cl [Compound A24]

Result:
73
77.5

Request: Supply pest or weed control at 280 g/ha value. Item: CC(C)ONC(=O)COc1ccc(Cl)cc1Cl [Compound D23]
Result: 72.5
